Listing of recorded koff by entry.
System Tested: T1, Soluble heterodimeric CD3 protein (hCD3-epsilon/hCD3-delta) with either a human Fc tag (hFcΔAdp/hFc) or a … (human, UniProt P07766 23-126; P04234 22-105)
T1 construct: also called hCD3ε/δ; not shown: Fc tag: human (hFcΔAdp/hFc)
T1 sequence (P07766 23-126 limits assumed, stated change not applied, chain 1 of 2): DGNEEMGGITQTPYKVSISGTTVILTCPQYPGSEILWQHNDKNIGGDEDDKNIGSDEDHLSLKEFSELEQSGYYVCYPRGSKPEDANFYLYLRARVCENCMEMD
T1 sequence (P04234 22-105 limits assumed, stated change not applied, chain 2 of 2): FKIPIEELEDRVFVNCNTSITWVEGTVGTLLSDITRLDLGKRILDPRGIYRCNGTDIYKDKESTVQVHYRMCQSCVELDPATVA
Assay Protocol: SPR Biacore 25C antigen-capture
Measurement Type: koff (s⁻¹)

- Binder: "H2M2710N (antibody, V domains shown, H2M: mouse IgG2 Fc, human variable regions; divalent) VH: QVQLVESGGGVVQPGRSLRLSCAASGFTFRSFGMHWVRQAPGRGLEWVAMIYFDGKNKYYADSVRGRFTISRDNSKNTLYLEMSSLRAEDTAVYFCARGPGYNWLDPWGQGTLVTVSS VL: EIVMTQSPATLSVSPGERATLSCRASQSVSRNLAWYQQKPGQAPRLLIYGASTRATGVPARFSGSGSGTEFTLTISSLQSEDFAVFHCQQYNNRPLTFGGGTEVEIK"
  Measurement Type: "koff"
  Quantitative Result: 0.000243
- Binder: "H2M2691N (antibody, mouse IgG2, V domains shown, H2M: mouse IgG2 Fc, human variable regions; divalent) VH: EVQLVESGGGLVQPGRSLRLSCAASGFTFDDYTMHWVRQAPGKGLEWVSGISWNSGSIGYADSVKGRFTISRDNAKKSLYLQMNSLRAEDTALYYCAKDNSGYGHYYYGMDVWGQGTTVTVAS VL: EIVMTQSPATLSVSPGERATLSCRASQSVSSNLAWYQQKPGQAPRLLIYGASTRATGIPARFSGSGSGTEFTLTISSLQSEDFAVYYCQHYINWPLTFGGGTKVEIK"
  Measurement Type: "koff"
  Quantitative Result: "9.98e-06"
- Binder: "H1H5758B (antibody, human IgG1, V domains shown, H1H: human IgG1 Fc; divalent) VH: EVQLVESGGGVVQPGRSLRLSCAASGFTFSSYGMHWVRQAPGKGLEWVTVILHDGSNRYYADSVKGRFTISRDNSKNTLYLQMNILRAEDTAVYYCTKGAMVRGVPYNHYYGMDVWGQGTTVTVSS VL: DIVMTQSPSSLSASVGDRVTITCRASQGIRNDLGWYQQKPGKAPKRLIYAASNLQSGVPSRFSGSGSGTEFTLTISSLQPEDFATYYCLQHNSYPYTFGQGTKLEIKR"
  Measurement Type: "koff"
  Quantitative Result: 0.000562
